Assay: Moderate hepatic impairment PK, single 100 mg
Assay type: in vivo, human
Conditions: human, plasma, oral, 100 mg, moderate hepatic impairment

compound: O=C(Nc1ccc(C[C@@H]2CC[C@H]([C@H](O)c3ccccc3)N2)cc1)[C@@H]1CCc2nccc(=O)n21 [Vibegron]
Cmax / ng/mL: 168

====

Assay: Single rising oral dose Phase 1 PK, healthy adults (young males unless stated)
Assay type: in vivo, human
Details: male, human, plasma, oral, 300 mg, single 300 mg; read-out: t1/2 (converted)
experimental_readout: half-life (h)

structure_as_smiles: O=C(Nc1ccc(C[C@@H]2CC[C@H]([C@H](O)c3ccccc3)N2)cc1)[C@@H]1CCc2nccc(=O)n21
recorded_measurement: 63.4

====

Assay: Multiple rising dose Phase 1 PK, healthy subjects, day 14 (young males unless stated)
Assay type: in vivo, human
Conditions: male, human, plasma, oral, 300 mg, 300 mg QD; read-out: t1/2 (converted)
experimental_readout: half-life (h)

structure_as_smiles: O=C(Nc1ccc(C[C@@H]2CC[C@H]([C@H](O)c3ccccc3)N2)cc1)[C@@H]1CCc2nccc(=O)n21
experimental_readout: half-life
unit_descriptor: h
recorded_measurement: 61.7

====

Assay: clinical
Conditions: human, plasma, oral, 100 mg
experimental_readout: half-life (h)

structure_as_smiles: O=C(Nc1ccc(C[C@@H]2CC[C@H]([C@H](O)c3ccccc3)N2)cc1)[C@@H]1CCc2nccc(=O)n21
recorded_measurement: 131

====

Experiment: Drug interaction: effect of conmed on vibegron PK
Assay type: in vivo, human
Details: human, plasma, oral, 100 mg, 100 mg single, alone (diltiazem study)
experimental_readout: AUC

structure_as_smiles: O=C(Nc1ccc(C[C@@H]2CC[C@H]([C@H](O)c3ccccc3)N2)cc1)[C@@H]1CCc2nccc(=O)n21
recorded_measurement: 1330 ng·h/mL

====

Biological target: β3-AR (Homo sapiens, UniProt P13945)
Sequence (P13945 whole entry): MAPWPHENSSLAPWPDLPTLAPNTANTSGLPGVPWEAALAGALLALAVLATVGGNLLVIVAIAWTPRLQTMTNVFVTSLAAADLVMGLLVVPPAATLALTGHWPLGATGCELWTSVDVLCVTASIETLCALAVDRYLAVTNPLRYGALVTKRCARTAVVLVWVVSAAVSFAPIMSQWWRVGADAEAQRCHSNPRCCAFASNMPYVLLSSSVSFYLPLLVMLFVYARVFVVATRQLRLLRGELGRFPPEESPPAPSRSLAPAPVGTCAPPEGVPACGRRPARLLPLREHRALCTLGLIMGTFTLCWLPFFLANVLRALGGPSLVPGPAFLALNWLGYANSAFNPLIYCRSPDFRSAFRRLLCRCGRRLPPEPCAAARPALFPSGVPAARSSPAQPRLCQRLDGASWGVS
Assay: Adenylyl cyclase functional assay in CHO cells stably expressing human β3-AR
Type: cell-based
Set-up: expressed in transfected cells
experimental_readout: EC50 (nM)

molecule: O=C(Nc1ccc(C[C@@H]2CC[C@H]([C@H](O)c3ccccc3)N2)cc1)[C@@H]1CCc2nccc(=O)n21 [Vibegron]
recorded_measurement: 1.1

====

Test: Single rising oral dose Phase 1 PK, healthy adults (young males unless stated)
Type: in vivo, human
Conditions: male, human, plasma, oral, 200 mg, single 200 mg
experimental_readout: Cmax (ng/mL)

structure_as_smiles: O=C(Nc1ccc(C[C@@H]2CC[C@H]([C@H](O)c3ccccc3)N2)cc1)[C@@H]1CCc2nccc(=O)n21
experimental_readout: Cmax
unit_descriptor: ng/mL
recorded_measurement: 274

====

Assay: Multiple rising dose Phase 1 PK, healthy subjects, day 14 (young males unless stated)
Assay type: in vivo, human
Settings: male, human, plasma, oral, 200 mg, 200 mg QD; read-out: t1/2 (converted)
Source text: The steady state AUC geometric mean accumulation ratios were ˜2 in young male subjects and ˜2.8 in elderly subjects (male and female). Although exposures were similar in middle-aged males when compared to young males, plasma concentrations were higher in elderly compared to middle-aged and young subjects. […] Furthermore, the steady state AUC geometric mean accumulation ratios were ˜2 in young males and ˜2.8 in the elderly.

compound: O=C(Nc1ccc(C[C@@H]2CC[C@H]([C@H](O)c3ccccc3)N2)cc1)[C@@H]1CCc2nccc(=O)n21 [Vibegron]
unit_descriptor: h
half-life: 64.7

====

Assay: Multiple rising dose Phase 1 PK, healthy subjects, day 14 (young males unless stated)
Type: in vivo, human
Conditions: male, human, plasma, oral, 25 mg, 25 mg QD; read-out: Cmax
experimental_readout: Cmax (ng/mL)

compound: O=C(Nc1ccc(C[C@@H]2CC[C@H]([C@H](O)c3ccccc3)N2)cc1)[C@@H]1CCc2nccc(=O)n21 [Vibegron]
recorded_measurement: 15.6

====

Assay: Single rising oral dose Phase 1 PK, healthy adults (young males unless stated)
Type: in vivo, human
Conditions: male, human, plasma, oral, 150 mg, single 150 mg
Method: The steady state AUC geometric mean accumulation ratios were ˜2 in young male subjects and ˜2.8 in elderly subjects (male and female). All subjects were healthy adults. […] Systemic exposures were greater than dose proportional up to 600 mg. Although exposures were similar in middle-aged males when compared to young males, plasma concentrations were higher in elderly compared to middle-aged and young subjects. […]

structure_as_smiles: O=C(Nc1ccc(C[C@@H]2CC[C@H]([C@H](O)c3ccccc3)N2)cc1)[C@@H]1CCc2nccc(=O)n21
AUC(0-inf) (ng·h/mL): 2270

====

Experiment: Multiple rising dose Phase 1 PK, healthy subjects, day 14 (young males unless stated)
Type: in vivo, human
Conditions: male, human, plasma, oral, 100 mg, 100 mg QD; read-out: AUC0-24

structure_as_smiles: O=C(Nc1ccc(C[C@@H]2CC[C@H]([C@H](O)c3ccccc3)N2)cc1)[C@@H]1CCc2nccc(=O)n21
AUC(0-t) / ng·h/mL: 1280

====

Assay: Multiple rising dose Phase 1 PK, healthy subjects, day 14 (young males unless stated)
Type: in vivo, human
Details: female, human, plasma, oral, 100 mg, elderly females; read-out: steady state Cmax

structure_as_smiles: O=C(Nc1ccc(C[C@@H]2CC[C@H]([C@H](O)c3ccccc3)N2)cc1)[C@@H]1CCc2nccc(=O)n21
unit_descriptor: ng/mL
Cmax: 278

====

Test: Single rising oral dose Phase 1 PK, healthy adults (young males unless stated)
Assay type: in vivo, human
Details: male, human, plasma, oral, 450 mg, single 450 mg
experimental_readout: AUC(0-inf) (ng·h/mL)

structure_as_smiles: O=C(Nc1ccc(C[C@@H]2CC[C@H]([C@H](O)c3ccccc3)N2)cc1)[C@@H]1CCc2nccc(=O)n21
recorded_measurement: 9160

====

Experiment: Multiple rising dose Phase 1 PK, healthy subjects, day 14 (young males unless stated)
Format: in vivo, human
Details: female, human, plasma, oral, 150 mg, 150 mg QD, middle-aged female; read-out: t1/2 (converted)
experimental_readout: half-life (days)

compound: O=C(Nc1ccc(C[C@@H]2CC[C@H]([C@H](O)c3ccccc3)N2)cc1)[C@@H]1CCc2nccc(=O)n21 [Vibegron]
recorded_measurement: 3.46

====

Experiment: Moderate hepatic impairment PK, single 100 mg
Type: in vivo, human
Settings: human, plasma, oral, 100 mg, healthy matched controls
experimental_readout: Cmax (ng/mL)

structure_as_smiles: O=C(Nc1ccc(C[C@@H]2CC[C@H]([C@H](O)c3ccccc3)N2)cc1)[C@@H]1CCc2nccc(=O)n21
experimental_readout: Cmax
recorded_measurement: 125

====

Experiment: Single rising oral dose Phase 1 PK, healthy adults (young males unless stated)
Type: in vivo, human
Conditions: male, human, plasma, oral, 50 mg, single 50 mg, Japanese, fasted

compound: O=C(Nc1ccc(C[C@@H]2CC[C@H]([C@H](O)c3ccccc3)N2)cc1)[C@@H]1CCc2nccc(=O)n21 [Vibegron]
Cmax: 62.2 ng/mL

====

Assay: Capsule vs tablet single-dose crossover PK, 150 mg, healthy males
Format: in vivo
Conditions: male, human, plasma, oral, 3 × 50 mg tablets
experimental_readout: Cmax

molecule: O=C(Nc1ccc(C[C@@H]2CC[C@H]([C@H](O)c3ccccc3)N2)cc1)[C@@H]1CCc2nccc(=O)n21 [Vibegron]
recorded_measurement: 213 ng/mL

====

Assay: Single rising oral dose Phase 1 PK, healthy adults (young males unless stated)
Type: in vivo, human
Conditions: male, human, plasma, oral, 20 mg, single 20 mg; read-out: AUC0-24
experimental_readout: AUC(0-t) (ng·h/mL)

molecule: O=C(Nc1ccc(C[C@@H]2CC[C@H]([C@H](O)c3ccccc3)N2)cc1)[C@@H]1CCc2nccc(=O)n21 [Vibegron]
experimental_readout: AUC(0-t)
recorded_measurement: 40

====

Experiment: Multiple rising dose Phase 1 PK, healthy subjects, day 14 (young males unless stated)
Type: in vivo, human
Conditions: female, human, plasma, oral, 100 mg, elderly females; read-out: steady state AUC0-24hr
experimental_readout: AUC(0-t) (ng·h/mL)

compound: O=C(Nc1ccc(C[C@@H]2CC[C@H]([C@H](O)c3ccccc3)N2)cc1)[C@@H]1CCc2nccc(=O)n21 [Vibegron]
unit_descriptor: ng·h/mL
recorded_measurement: 2620

====

Assay: Multiple rising dose Phase 1 PK, healthy subjects, day 14 (young males unless stated)
Type: in vivo, human
Conditions: male, human, plasma, oral, 25 mg, 25 mg QD; read-out: t1/2 (converted)
Text: The steady state AUC geometric mean accumulation ratios were ˜2 in young male subjects and ˜2.8 in elderly subjects (male and female). Although exposures were similar in middle-aged males when compared to young males, plasma concentrations were higher in elderly compared to middle-aged and young subjects. […] Furthermore, the steady state AUC geometric mean accumulation ratios were ˜2 in young males and ˜2.8 in the elderly.
experimental_readout: half-life (days)

structure_as_smiles: O=C(Nc1ccc(C[C@@H]2CC[C@H]([C@H](O)c3ccccc3)N2)cc1)[C@@H]1CCc2nccc(=O)n21
experimental_readout: half-life
recorded_measurement: 3.92

====

Test: Single rising oral dose Phase 1 PK, healthy adults (young males unless stated)
Type: in vivo, human
Settings: both sexes, human, plasma, oral, 50 mg, single 50 mg, elderly male and female; read-out: AUC0-24
experimental_readout: AUC(0-t) (ng·h/mL)

structure_as_smiles: O=C(Nc1ccc(C[C@@H]2CC[C@H]([C@H](O)c3ccccc3)N2)cc1)[C@@H]1CCc2nccc(=O)n21
experimental_readout: AUC(0-t)
unit_descriptor: ng·h/mL
recorded_measurement: 314
